Known IC50 of a selection of compounds
Test system: HER2/Neu protein in SK-OV-3 cells
Test: Hsp90 Client Protein Degradation Assay
Format: cell-based
Conditions: Homo sapiens; 50% degradation of HER2/Neu protein, SK-OV-3 cells, overnight

INSERT INTO assay_data (compound, result) VALUES
  ('Nc1nc(F)nc2[nH]c(Cc3cc4c(cc3I)OCO4)nc12 [Intermediate 5]', '< 50000 nM'),
  ('Nc1nc(F)nc2c1nc(Cc1cc3c(cc1I)OCO3)n2CCCCCCCCOS(N)(=O)=O [Example 7]', '< 50000 nM'),
  ('Nc1nc(F)nc2c1nc(Cc1cc3c(cc1I)OCO3)n2CCOCCCOS(N)(=O)=O [Example 9]', '< 3000 nM'),
  ('Nc1nc(F)nc2c1nc(Cc1cc3c(cc1I)OCO3)n2CCCOS(N)(=O)=O [Example 2]', '< 3000 nM');

Now turn to the next compound.
query: Give IC50 for this entry on HER2/Neu protein in SK-OV-3 cells: Nc1nc(F)nc2c1nc(Cc1cc3c(cc1I)OCO3)n2CCOS(N)(=O)=O [Example 1]
result: < 3000 nM

###

# maps each entry to its IC50
Biological target: Hsp90α Protein (Homo sapiens)
Test: Hsp90 CE Competitive Binding Assay (displacement of fluorescein-labelled geldanamycin)
Details: Table 14; inhibition of binding of labeled geldanamycin to Hsp90; read-out: CE IC50

As a guide, the following entries are already answered.
INSERT INTO measurements (compound, result) VALUES
  ('Nc1nc(F)nc2c1nc(Cc1cc3c(cc1I)OCO3)n2CCOCCCOS(N)(=O)=O [Example 9]', '< 40 nM'),
  ('Nc1nc(F)nc2c1nc(Cc1cc3c(cc1I)OCO3)n2CCOCCOS(N)(=O)=O [Example 8]', '< 40 nM'),
  ('Nc1nc(F)nc2c1nc(Cc1cc3c(cc1I)OCO3)n2CCCCCCCCOS(N)(=O)=O [Example 7]', '< 2000 nM'),
  ('Nc1nc(F)nc2c1nc(Cc1cc3c(cc1I)OCO3)n2CCCCCOS(N)(=O)=O [Example 4]', '< 40 nM'),
  ('Nc1nc(F)nc2c1nc(Cc1cc3c(cc1I)OCO3)n2CCOS(N)(=O)=O [Example 1]', '< 40 nM'),
  ('Nc1nc(F)nc2c1nc(Cc1cc3c(cc1I)OCO3)n2CCCOS(N)(=O)=O [Example 2]', '< 40 nM');

query: Provide measured IC50 value, entry: Nc1nc(F)nc2[nH]c(Cc3cc4c(cc3I)OCO4)nc12 [Intermediate 5]
result: < 2000 nM

query: Answer with the recorded IC50 of Nc1nc(F)nc2c1nc(Cc1cc3c(cc1I)OCO3)n2CCCCCCOS(N)(=O)=O [Example 5] only.
result: < 40 nM

query: Please indicate IC50 recorded for Nc1nc(F)nc2c1nc(Cc1cc3c(cc1I)OCO3)n2CCCCCCCOS(N)(=O)=O [Example 6]
result: < 40 nM

query: Complete the entry with IC50 for Nc1nc(F)nc2c1nc(Cc1cc3c(cc1I)OCO3)n2CCOCCCCOS(N)(=O)=O [Example 10]
result: < 40 nM

###

Target: Hsp90α Protein (Homo sapiens)
Test: Hsp90 CE Competitive Binding Assay (displacement of fluorescein-labelled geldanamycin)
property label: IC50 (µM)
Quick reminder: number only, in µM, skip the unit.

query: Specify the recorded IC50 for Nc1nc(F)nc2c1ncn2C1OC(CO)C(O)C1O (stereo not shown) [Fluoroadenosine (FA), Fluoroadenosine, reference compound] , system: Hsp90α Protein (Homo sapiens).
result: 22
